system.under.test: programmed cell death protein 1 (PD-1) (Homo sapiens, UniProt Q15116)
Sequence (Q15116 25-288): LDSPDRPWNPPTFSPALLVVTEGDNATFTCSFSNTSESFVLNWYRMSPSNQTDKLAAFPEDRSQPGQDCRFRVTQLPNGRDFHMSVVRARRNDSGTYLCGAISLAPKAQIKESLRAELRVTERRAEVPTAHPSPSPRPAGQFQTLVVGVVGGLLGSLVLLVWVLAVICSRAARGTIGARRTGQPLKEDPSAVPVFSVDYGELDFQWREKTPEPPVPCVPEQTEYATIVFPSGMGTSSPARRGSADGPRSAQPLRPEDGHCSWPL
outcome.measure: Kd (nM)

[[record]]
compound = "C/C(O)=C(\\C#N)C(=O)Nc1ccc(C(F)(F)F)cc1 [TER, teriflunomide]"
units_symbol = "nM"
recorded_measurement = 1.47

